System: B6C3F1 mice, ip Sarcoma M5076, median survival T/C
Assay Comment: NCI In Vivo Anticancer Drug Screen. Data for tumor model Sarcoma M5076 (intraperitoneal) in B6C3F1 mice
Experimental Parameters: endpoint: median survival time; dose: 100.0 mg/kg/injection; schedule: Q04DX004 (ip); vehicle: saline with Tween-80; higher = longer survival
Experimental: The antitumor activity of compounds was measured in mice bearing transplantable tumors. Survival or tumor size were measured and the results are expressed as the measurement made in the treated group (T) divided by the measurement made in the vehicle treated control group (C). The tumor model used in this assay is Sarcoma M5076 (intraperitoneal) in B6C3F1 mice
Inconclusive results and toxic doses are left out.
Field: T/C. Provide a value for each of the compounds that follow.

Lookup: Which T/C reading was recorded for the compound Cc1c(/C=C/C(=O)O)no[n+]1[O-] ?
Found: 101 % of control

Lookup: Need T/C of COC(=O)c1c(C(=O)OC)c2c(C)nn3ccc1n23 , thanks.
Found: 104 % of control

Lookup: Bench note: what T/C did CCOC(=O)c1ccc2c(=O)[nH]nc(CO)c2c1 show?
Found: 99 % of control

Lookup: Given CC1=Nc2cc(N)nn2C(=O)C1 , state its recorded T/C.
Found: 99 % of control

Lookup: What does the data say about its T/C? Entry: O=c1/c(=C\C=C\c2ccccc2)sc2n1CCN=2
Found: 99 % of control

Lookup: Entry COc1cc(C(C)(C)C)cc(OC)c1C(O)(c1c(OC)cc(C(C)(C)C)cc1OC)c1c(OC)cc(C(C)(C)C)cc1OC : reported T/C = ?
Found: 108 % of control
